Test system: IGROV1
assay-protocol: NCI SRB growth inhibition (single dose 10 µM / five-dose)
Assay type: cell-based, human
conditions-used: Homo sapiens, IGROV-1; IGROV1 (Ovarian cancer), 10 µM; read-out: GI%
The entries below come with measured inhibition at 10 µM values attached.

molecule	study-system	result-modifier	inhibition at 10 µM, %
O=C(NN=Cc1cccc(O)c1)c1ccc2[nH]c(-c3ccc(Cl)cc3)nc2c1 [8p]	IGROV1	=	5.71
COc1ccc(-c2nc3cc(C(=O)NN=Cc4cccc(OC)c4)ccc3[nH]2)cc1 [8j]	IGROV1	>	100
COc1ccc(C=NNC(=O)c2ccc3[nH]c(-c4ccc(Cl)cc4)nc3c2)cc1O [8s]	IGROV1	<	5
COc1ccc(-c2nc3cc(C(=O)NN=Cc4cccc(OC)c4O)ccc3[nH]2)cc1 [8k]	IGROV1	=	84.8
COc1cccc(C=NNC(=O)c2ccc3[nH]c(-c4ccccc4)nc3c2)c1 [8c]	IGROV1	=	10.1
O=C(NN=Cc1cccc(O)c1)c1ccc2[nH]c(-c3ccccc3)nc2c1 [8b]	IGROV1	=	13
COc1ccc(-c2nc3cc(C(=O)NN=Cc4cccc(O)c4)ccc3[nH]2)cc1 [8i]	IGROV1	=	11.2
COc1ccc(OC)c(C=NNC(=O)c2ccc3[nH]c(-c4ccc(Cl)cc4)nc3c2)c1 [8t]	IGROV1	=	7.82
COc1cccc(C=NNC(=O)c2ccc3[nH]c(-c4ccccc4)nc3c2)c1O [8d]	IGROV1	=	79.9

---

The entries below come with measured inhibition at 10 µM values attached.
Test system: MOLT-4
assay-protocol: NCI SRB growth inhibition (single dose 10 µM / five-dose)
Assay type: cell-based, human
conditions-used: Homo sapiens; MOLT-4 (Leukemia), 10 µM; read-out: GI%

compound-structure-string	inhibition at 10 µM [%]
COc1cccc(C=NNC(=O)c2ccc3[nH]c(-c4ccccc4)nc3c2)c1	35.4
COc1ccc(-c2nc3cc(C(=O)NN=Cc4cc(OC)ccc4OC)ccc3[nH]2)cc1	35.8
COc1ccc(-c2nc3cc(C(=O)NN=Cc4cccc(OC)c4)ccc3[nH]2)cc1	59.4
COc1ccc(-c2nc3cc(C(=O)NN=Cc4ccccc4O)ccc3[nH]2)cc1	88.5
COc1cccc(C=NNC(=O)c2ccc3[nH]c(-c4ccc(Cl)cc4)nc3c2)c1	71.6
O=C(NN=Cc1ccccc1O)c1ccc2[nH]c(-c3ccc(Cl)cc3)nc2c1	60.8
COc1cc(C=NNC(=O)c2ccc3[nH]c(-c4ccccc4)nc3c2)cc(OC)c1OC	21.2
COc1ccc(OC)c(C=NNC(=O)c2ccc3[nH]c(-c4ccc(Cl)cc4)nc3c2)c1	58.9
COc1ccc(-c2nc3cc(C(=O)NN=Cc4ccc(OC)c(O)c4)ccc3[nH]2)cc1	78.6

---

Tested on: MOLT-4
assay-protocol: NCI SRB growth inhibition (single dose 10 µM / five-dose)
Assay type: cell-based, human
conditions-used: Homo sapiens; MOLT-4 (Leukemia), 10 µM; read-out: GI%
Returns one of label 1 or label 0; label 1 when inhibition at 10 µM is >= 70%.

compound-structure-string	assigned-class
COc1cccc(C=NNC(=O)c2ccc3[nH]c(-c4ccc(Cl)cc4)nc3c2)c1O	label 1
COc1ccc(C=NNC(=O)c2ccc3[nH]c(-c4ccccc4)nc3c2)cc1O	label 0
COc1ccc(-c2nc3cc(C(=O)NN=Cc4cccc(OC)c4O)ccc3[nH]2)cc1	label 1
COc1cccc(C=NNC(=O)c2ccc3[nH]c(-c4ccccc4)nc3c2)c1O	label 0
COc1cc(C=NNC(=O)c2ccc3[nH]c(-c4ccc(Cl)cc4)nc3c2)cc(OC)c1OC	label 1
COc1ccc(-c2nc3cc(C(=O)NN=Cc4cccc(O)c4)ccc3[nH]2)cc1	label 1
O=C(NN=Cc1cccc(O)c1)c1ccc2[nH]c(-c3ccccc3)nc2c1	label 0
COc1ccc(-c2nc3cc(C(=O)NN=Cc4cc(OC)c(OC)c(OC)c4)ccc3[nH]2)cc1	label 0
COc1ccc(OC)c(C=NNC(=O)c2ccc3[nH]c(-c4ccccc4)nc3c2)c1	label 0
COc1ccc(C=NNC(=O)c2ccc3[nH]c(-c4ccc(Cl)cc4)nc3c2)cc1O	label 1

---

Test system: NCI-H522
assay-protocol: NCI SRB growth inhibition (single dose 10 µM / five-dose)
Type: cell-based, human
conditions-used: Homo sapiens; NCI-H522, Non-small cell lung cancer; five-dose
The entries below come with measured log10(GI50) values attached.
quantity-name: log10(GI50) (log10 of the value in nM)

compound	observed-result
COc1ccc(-c2nc3cc(C(=O)NN=Cc4ccccc4O)ccc3[nH]2)cc1 [8h]	3.19
O=C(NN=Cc1ccccc1O)c1ccc2[nH]c(-c3ccc(Cl)cc3)nc2c1 [8o]	2.41
COc1cccc(C=NNC(=O)c2ccc3[nH]c(-c4ccccc4)nc3c2)c1O [8d]	3.29
COc1cccc(C=NNC(=O)c2ccc3[nH]c(-c4ccc(Cl)cc4)nc3c2)c1O [8r]	3.07
COc1cc(C=NNC(=O)c2ccc3[nH]c(-c4ccc(Cl)cc4)nc3c2)cc(OC)c1OC [8u]	3.69
COc1ccc(-c2nc3cc(C(=O)NN=Cc4cccc(OC)c4)ccc3[nH]2)cc1 [8j]	3.52
COc1ccc(-c2nc3cc(C(=O)NN=Cc4cccc(OC)c4O)ccc3[nH]2)cc1 [8k]	3.47
COc1cccc(C=NNC(=O)c2ccc3[nH]c(-c4ccc(Cl)cc4)nc3c2)c1 [8q]	3.35

---

System: NCI panel of 60 tumor cell lines
assay-protocol: NCI SRB growth inhibition, whole panel mean (single dose 10 µM / five-dose)
Assay type: cell-based, human
conditions-used: Homo sapiens; mean over NCI panel of 60 tumor cell lines, 10 µM; read-out: Mean growth inhibition %
Description: Screening of cytotoxic activity against a panel of sixty human tumor cell lines The selected compounds by NCI were evaluated for their anticancer activity in a two- stage process. […] Using the seven absorbance measurements [time zero, (Tz), control growth, (C), and test growth in the presence of drug at the five concentration levels (Ti)], the percentage growth is calculated at each of the drug concentrations levels. […] Three dose response parameters are calculated for each experimental agent. […]

compound-structure-string	inhibition at 10 µM
COc1ccc(C=NNC(=O)c2ccc3[nH]c(-c4ccccc4)nc3c2)cc1O	16.8%
COc1cc(C=NNC(=O)c2ccc3[nH]c(-c4ccc(Cl)cc4)nc3c2)cc(OC)c1OC	> 100%
O=C(NN=Cc1cccc(O)c1)c1ccc2[nH]c(-c3ccccc3)nc2c1	8.49%
COc1ccc(OC)c(C=NNC(=O)c2ccc3[nH]c(-c4ccc(Cl)cc4)nc3c2)c1	33.5%
COc1cccc(C=NNC(=O)c2ccc3[nH]c(-c4ccc(Cl)cc4)nc3c2)c1	> 100%
COc1ccc(OC)c(C=NNC(=O)c2ccc3[nH]c(-c4ccccc4)nc3c2)c1	33.7%
COc1cccc(C=NNC(=O)c2ccc3[nH]c(-c4ccc(Cl)cc4)nc3c2)c1O	> 100%
O=C(NN=Cc1ccccc1O)c1ccc2[nH]c(-c3ccc(Cl)cc3)nc2c1	> 100%
COc1cccc(C=NNC(=O)c2ccc3[nH]c(-c4ccccc4)nc3c2)c1	20.7%

---

System: SR
assay-protocol: NCI SRB growth inhibition (single dose 10 µM / five-dose)
Assay type: cell-based, human
conditions-used: Homo sapiens; SR (Leukemia), 10 µM; read-out: GI%
Consider the following partition of reported inhibition at 10 µM into named classes: Low: < 30%; Mid: ≥ 30% and < 80%; High: ≥ 80%

compound-structure-string	assigned-class
COc1ccc(-c2nc3cc(C(=O)NN=Cc4cc(OC)c(OC)c(OC)c4)ccc3[nH]2)cc1	Low
COc1cccc(C=NNC(=O)c2ccc3[nH]c(-c4ccccc4)nc3c2)c1	Mid
COc1cc(C=NNC(=O)c2ccc3[nH]c(-c4ccccc4)nc3c2)cc(OC)c1OC	Low
COc1cccc(C=NNC(=O)c2ccc3[nH]c(-c4ccccc4)nc3c2)c1O	Mid
O=C(NN=Cc1cccc(O)c1)c1ccc2[nH]c(-c3ccc(Cl)cc3)nc2c1	Low
COc1cccc(C=NNC(=O)c2ccc3[nH]c(-c4ccc(Cl)cc4)nc3c2)c1O	High
O=C(NN=Cc1ccccc1O)c1ccc2[nH]c(-c3ccc(Cl)cc3)nc2c1	Mid
COc1ccc(-c2nc3cc(C(=O)NN=Cc4ccc(OC)c(O)c4)ccc3[nH]2)cc1	Mid
COc1ccc(-c2nc3cc(C(=O)NN=Cc4cccc(OC)c4O)ccc3[nH]2)cc1	High
COc1ccc(-c2nc3cc(C(=O)NN=Cc4ccccc4O)ccc3[nH]2)cc1	High

---

Test system: NCI-H226
assay-protocol: NCI SRB growth inhibition (single dose 10 µM / five-dose)
Type: cell-based, human
conditions-used: Homo sapiens; NCI-H226 (Non-small cell lung cancer), 10 µM; read-out: GI%

compound-structure-string	scale-unit	result-modifier	inhibition at 10 µM
COc1ccc(OC)c(C=NNC(=O)c2ccc3[nH]c(-c4ccc(Cl)cc4)nc3c2)c1	%	=	35.7
COc1ccc(-c2nc3cc(C(=O)NN=Cc4cc(OC)ccc4OC)ccc3[nH]2)cc1	%	<	5
COc1ccc(-c2nc3cc(C(=O)NN=Cc4cccc(OC)c4O)ccc3[nH]2)cc1	%	=	82.2
COc1cccc(C=NNC(=O)c2ccc3[nH]c(-c4ccccc4)nc3c2)c1O	%	>	100
COc1cc(C=NNC(=O)c2ccc3[nH]c(-c4ccccc4)nc3c2)cc(OC)c1OC	%	=	50.4
COc1ccc(C=NNC(=O)c2ccc3[nH]c(-c4ccc(Cl)cc4)nc3c2)cc1O	%	=	37.6
COc1ccc(-c2nc3cc(C(=O)NN=Cc4ccccc4O)ccc3[nH]2)cc1	%	>	100
COc1ccc(-c2nc3cc(C(=O)NN=Cc4cccc(OC)c4)ccc3[nH]2)cc1	%	=	98.3
COc1ccc(OC)c(C=NNC(=O)c2ccc3[nH]c(-c4ccccc4)nc3c2)c1	%	=	49.5
